target: recombinant full-length PDE2A protein (Homo sapiens, UniProt O00408); construct: Expression of recombinant full-length PDE2A protein in insect Sf9 cells; GST (N); test: Evaluation of PDE2 phosphodiesterase inhibitory activity in vitro (fluorescence polarization, Transcreener AMP2/GMP2); details: IC50 classes; substrate 1 μM cGMP; room temperature one hour
Sequence (O00408 whole entry, species assumed): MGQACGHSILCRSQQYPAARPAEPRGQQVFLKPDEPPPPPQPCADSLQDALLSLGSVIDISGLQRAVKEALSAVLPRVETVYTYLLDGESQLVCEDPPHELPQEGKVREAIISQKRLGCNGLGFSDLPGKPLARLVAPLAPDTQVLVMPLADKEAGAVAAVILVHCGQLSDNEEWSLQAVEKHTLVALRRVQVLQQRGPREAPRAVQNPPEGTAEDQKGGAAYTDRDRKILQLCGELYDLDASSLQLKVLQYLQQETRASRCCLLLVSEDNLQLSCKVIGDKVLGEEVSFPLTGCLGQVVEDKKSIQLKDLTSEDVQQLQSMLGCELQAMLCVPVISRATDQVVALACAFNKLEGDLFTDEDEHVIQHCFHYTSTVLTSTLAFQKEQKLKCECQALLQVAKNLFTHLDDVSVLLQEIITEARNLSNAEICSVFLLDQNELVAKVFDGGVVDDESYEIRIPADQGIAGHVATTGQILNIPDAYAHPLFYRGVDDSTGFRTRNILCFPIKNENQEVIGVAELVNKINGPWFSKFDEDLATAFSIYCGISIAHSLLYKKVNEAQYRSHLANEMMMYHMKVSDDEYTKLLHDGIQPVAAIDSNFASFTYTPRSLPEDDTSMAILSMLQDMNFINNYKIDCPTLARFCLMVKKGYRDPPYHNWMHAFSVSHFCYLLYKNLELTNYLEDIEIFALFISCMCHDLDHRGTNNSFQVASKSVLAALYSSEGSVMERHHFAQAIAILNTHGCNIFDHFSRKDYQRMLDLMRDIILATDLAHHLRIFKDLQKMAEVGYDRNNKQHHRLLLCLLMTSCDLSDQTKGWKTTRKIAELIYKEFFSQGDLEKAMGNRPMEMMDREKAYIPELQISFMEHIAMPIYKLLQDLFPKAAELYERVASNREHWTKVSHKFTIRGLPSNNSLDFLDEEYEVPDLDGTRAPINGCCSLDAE
pIC50: −log10 of the molar value.
Entries and their pIC50

The reported value for Cn1cnc2c1c(=O)n(CC1CC(C(C)(O)C(F)(F)F)C1)c(=O)n2C (single isomer, unassigned) [Embodiment 9 isomer 1] in terms of pIC50 is 4.30 to 5.00

The reported value for CCC(O)(CC)C1CCC(Cn2c(=O)c3c(ncn3C)n(C)c2=O)CC1 (stereo not shown) in terms of pIC50 is 5.00 to 6.00

The reported value for COCC1(Cn2c(=O)c3c(ncn3CC3CC3)n(C)c2=O)CCC(O)(C(F)(F)F)CC1 (stereo not shown) in terms of pIC50 is 4.30 to 5.00

The reported value for CCn1cnc2c1c(=O)n(CCCCC(C)(O)C(F)(F)F)c(=O)n2C (stereo not shown) in terms of pIC50 is 4.30 to 5.00
